Assay: chemical genetic growth profiling, strain panel (AID 1159580);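 further: tested at 20 µM; growth read once vehicle control cultures reached saturation at 30 °C; 1 = growth at the plate median or of vehicle wells; lower values mean less growth of the strain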
Settings: S. cerevisiae deletion strains, growth OD, locus YDR318W, strain mcm21, active compounds read low
In all, about 5,500 compounds went through this assay and about 2,000 (36%) were called active. Inconclusive results (about 18%) are left out. This is one part of the list.
ASSAY_ENDPOINT: normalized growth
Numbers only.

Look over these answered cases.
Oc1ccc(/C=C/c2cc(O)cc(O)c2)cc1; 0.983
CC(=O)Oc1cc(C)c2c(c1C(OC(C)=O)OC(C)=O)Oc1c(c(C)c(OC(C)=O)c3c1C(OC(C)=O)OC3=O)OC2=O (centres undefined); 0.98
O=C(/C=C/c1ccc(O)c(O)c1)O[C@@H]1C[C@](O)(C(=O)O)C[C@@H](O)[C@H]1O; 1.01

Now examine the next entry.
Value lookup for normalized growth; key = COc1cc(C)c2c(c1C=O)Oc1c(c(C)c(O)c3c1C(O)OC3=O)OC2=O (centres undefined)
1
